Reported GI50 is given for each of the following compounds.
Test system: A549 NSCLC
Assay: NCI tumour cell line growth inhibition, 48 h

• Cc1cc(S(=O)(=O)Nc2nc3ccccc3o2)c(SCc2ccccc2)cc1Cl = 21.7 µM

Enquiry: Which GI50 value belongs to COCC1CCCN1c1ccc(C=N/C(C#N)=C(\N)C#N)cc1 (stereo not given) ?
Return: 14 µM

Enquiry: Which GI50 value belongs to Fc1cccc(COc2ccc(Nc3ncnc4sc(-c5cccs5)cc34)cc2Cl)c1 ?
Return: 9.32 µM

Enquiry: Which GI50 value belongs to Cc1cc2nc3c4cc(O)ccc4n(CCN(C)C)c3nc2cc1C ?
Return: 0.78 µM

Enquiry: Which GI50 value belongs to O=S(=O)(NCCCNc1nccc(-c2c(-c3ccc(O)cc3)nc3sccn23)n1)c1ccc(F)cc1 ?
Return: 2.64 µM

Enquiry: Which GI50 value belongs to COc1cc(Nc2nc3cc(N)cc(N)c3nc2-c2ccccc2)cc(OC)c1OC ?
Return: 29.8 µM

Enquiry: Which GI50 value belongs to COc1cc(/C=C\c2cc(OC)c(OC)c(OC)c2)cc(N/C=C\C(=O)c2ccc(OC(F)(F)F)cc2)c1OC ?
Return: 4.54 µM

Enquiry: Which GI50 value belongs to O=C(Cc1ccc(/C=C/C(=O)c2ncc[nH]2)cc1)Nc1ccc(F)cc1 ?
Return: 6.94 µM

Enquiry: Which GI50 value belongs to CCOC(=O)/C(=C/N1CCN(C(=O)c2ccco2)C1=S)C(=O)c1ccccc1 ?
Return: 11.6 µM

Enquiry: Which GI50 value belongs to NS(=O)(=O)c1ccc(Nc2cc(-c3cccc(O)c3)[nH]n2)cc1 ?
Return: > 25 µM

---

Test system: OVCAR-8 ovarian
Assay: NCI tumour cell line growth inhibition, 48 h
Reported GI50 is given for each of the following compounds.

The examples below pair each entry with its known result.
- CCN1C/C(=C\c2cc(OC)c(OC)cc2OC)C(=O)/C(=C/c2cc(OC)c(OC)cc2OC)C1: 3.43 µM
- O=S(=O)(NCCCNc1nccc(-c2c(-c3ccc(O)cc3)nc3sccn23)n1)c1ccc(F)cc1: 1.57 µM
- O=C(Cc1ccc(/C=C/C(=O)c2ncc[nH]2)cc1)Nc1ccc(F)cc1: 5.08 µM
- CCN(Cc1ccc(C)cc1)c1ccc(CO)c(Cl)c1: 10.6 µM

With those in mind, consider the next compound.
Enquiry: Which GI50 value belongs to CCOC(=O)/C(=C/N1CCN(C(=O)c2ccco2)C1=S)C(=O)c1ccccc1 ?
Return: 11.7 µM

---

Test system: IGROV1 ovarian
Assay: NCI tumour cell line growth inhibition, 48 h; in the data active = GI50 below about 0.43 µM; inactive = the rest
Can you answer with just one of these options? active, inactive

Consider the following illustrative entries.
* CS(=O)(=O)Nc1cncc(-c2ccc3ncnc(Nc4ccc(F)c(Cl)c4)c3c2)c1 | active
* CCN1C(=S)N(c2ccccc2)C2NC(=S)N(/N=C/C=C/c3ccccc3OC)C21 (centres undefined) | inactive
* O=C(CC(Cl)=C(Cl)Cl)Nc1ccccc1 | inactive
* CCSCC1CC(O)(c2ccccc2)CC(c2ccc(F)cc2)O1 (centres undefined) | inactive
* NS(=O)(=O)c1ccc(Nc2cc(-c3cccc(O)c3)[nH]n2)cc1 | inactive
* COc1ccc2c(c1)/C(=C\c1c(-c3cc(OC)ccc3OC)nc3sc(C)cn13)C(=O)N2C | inactive
* O=C(Cc1ccc(/C=C/C(=O)c2ncc[nH]2)cc1)Nc1ccc(F)cc1 | inactive
* Fc1cc2[nH]ncc2c2c3c(c(-c4cn[nH]c4C(F)(F)F)nc12)CCCC3 | inactive

Next item in the queue.
Enquiry: Outcome? CCN(CC)c1ccc(/C=N/NC(=O)CSc2nc3ccccc3c(=O)n2CCc2ccc(S(N)(=O)=O)cc2)c(O)c1
Return: inactive
